system: purified B cells; assay: B cell proliferation in vitro (anti-CD40, 3H-thymidine incorporation); format: cell-based; conditions: B-cell; anti-CD40 stimulation, 72 h; read-out: IC50 for inhibition of B cell proliferation
Exercise: state measured pIC50 for each of the molecules provided.
Remember the convention: pIC50 equals -log10 of concentration in molar.

Query: Bench note: what pIC50 did `COc1ccc(/C=C/C(=O)Nc2ccccc2C(=O)O)cc1OC` show?
Result: 4.14

Query: Bench note: what pIC50 did Nc1c(O)cccc1C(=O)O [3-Hydroxyanthranilic acid] show?
Result: 4.19

Where these numbers come from: patent US20090197957A1
